Target Desc: UniProt P04585
Method Notes: HIV-1 integrase in vitro activity, 3' strand processing (denaturing PAGE)
Format: biochemical
Set-up: HIV-1 integrase (1 μM, final concentration); made in house
Condition Set: 1 μM integrase; pre-incubated 30° C. 30 min; 21-base pair 32P substrate, 10 mM MnCl2, 15 min 37° C.; ± SD from fit; at least two, typically three experiments; read-out: HIV-1 integrase (3' strand processing) IC50
Below is a list of entries, each paired with its recorded IC50 value.

Solved entries:
{"Compound": "COc1ccc(C(c2c(O)c3ccccc3oc2=O)c2c(O)c3ccccc3oc2=O)cc1Cn1nc(C)c([N+](=O)[O-])c1C [Compound 4]", "Target Desc": "UniProt P04585", "IC50": "9 µM"}
{"Compound": "COc1cc(C=C2SC(=S)NC2=O)ccc1OS(=O)(=O)c1ccccc1[N+](=O)[O-] [Compound 14]", "Target Desc": "UniProt P04585", "IC50": "17 µM"}

Tell me the measured IC50 of O=S(=O)(c1cc(Cl)cc(Cl)c1O)c1cc(Cl)cc(Cl)c1O [Compound 6] , please.
32 µM

Data provenance is patent US20090098548A1.
